Target: MDM2 binding domain (1–118) / PMDM6-F peptide (p53-MDM2) (Homo sapiens, UniProt Q00987)
Sequence (Q00987 1-118): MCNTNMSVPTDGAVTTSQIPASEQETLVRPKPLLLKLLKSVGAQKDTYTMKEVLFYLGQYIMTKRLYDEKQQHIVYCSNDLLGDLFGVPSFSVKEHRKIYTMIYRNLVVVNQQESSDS
Test: fluorescence polarization (FP) p53-MDM2 binding assay
MEASURED_PARAMETER: Ki (nM)
Your answer should be a plain number; it is taken to be in nM.

// worked examples, Ki included
compound="Clc1ccc(C2NC(c3ccccc3)c3cc(Cl)ccc3-n3cnnc32)cc1 (stereo not shown)" experimental_value=2800
compound="S=C1Nc2ccc(Cl)cc2C(c2ccccc2)=NC1c1ccc(Cl)cc1 (stereo not shown)" experimental_value=8760

## Input Tell me Ki reported for O=C1Nc2ccc(Cl)cc2C(c2ccccc2)=NC1c1ccc(Cl)cc1 (stereo not shown)
## Output 200

## Input Tell me Ki reported for Clc1ccc(C2N=C(c3ccccc3)c3cc(Cl)ccc3-n3cnnc32)cc1 (stereo not shown)
## Output 1220

###

Test system: A549 (wild-type p53)
Assay: in vitro antitumor activity, MTT
Assay type: cell-based
Conditions: Homo sapiens, A549, 72 h, read-out: IC50 A549 (wt-p53)
MEASURED_PARAMETER: IC50 (µM)
Your answer should be a plain number; it is taken to be in µM.

// worked examples, IC50 included
compound="S=C1Nc2ccc(Cl)cc2C(c2ccccc2)=NC1c1ccc(Cl)cc1 (stereo not shown) [Compound 14]" measured_target="A549 (wild-type p53)" experimental_value=24.1
compound="Clc1ccc(C2N=C(c3ccccc3)c3cc(Cl)ccc3-n3cnnc32)cc1 (stereo not shown) [Compound 16]" measured_target="A549 (wild-type p53)" experimental_value=7.62
compound="Clc1ccc(C2NC(c3ccccc3)c3cc(Cl)ccc3-n3cnnc32)cc1 (stereo not shown) [Compound 17]" measured_target="A549 (wild-type p53)" experimental_value=26.8

// below: IC50 requested for another compound
## Input Tell me IC50 reported for O=C1Nc2ccc(Cl)cc2C(c2ccccc2)=NC1c1ccc(Cl)cc1 (stereo not shown) [Compound 13]
## Output 9.16

###

Target: MDM2 binding domain (1–118) / PMDM6-F peptide (p53-MDM2) (Homo sapiens)
Assay: fluorescence polarization (FP) p53-MDM2 binding assay
Settings: FP binding assay, MDM2 (1–118) 10 nM, PMDM6-F 10 nM; read-out: Ki
pKi: −log10 of the molar value.
Hi, to clarify the labels: Criterion met covers pKi from 5 upward, Criterion not met covers anything below 5.

compound="O=C1Nc2ccccc2S(=O)(=O)N(Cc2cccc(F)c2)C1c1ccc(Cl)cc1 (centres unmarked)" label_class="Criterion not met"

// next entry
## Input Does C#CCN1C(c2ccc(Cl)cc2)C(=O)Nc2ccccc2S1(=O)=O (centres unmarked) have a reported pKi of at least 5?
## Output Criterion met

###

Target: MDM2 binding domain (1–118) / PMDM6-F peptide (p53-MDM2) (Homo sapiens, UniProt Q00987)
Assay: fluorescence polarization (FP) p53-MDM2 binding assay
Settings: FP binding assay, MDM2 (1–118) 10 nM, PMDM6-F 10 nM; read-out: Ki
MEASURED_PARAMETER: Ki (µM)
Your answer should be a plain number; it is taken to be in µM.

// worked examples, Ki included
compound="O=C1Nc2ccccc2S(=O)(=O)N(Cc2ccccc2)C1c1ccc(Cl)cc1 (stereo not drawn)" measured_parameter=Ki experimental_value=8.14
compound=O=C1Nc2ccccc2S(=O)(=O)N=C1c1ccc(Cl)cc1 measured_parameter=Ki experimental_value=11.9
compound="C#CCN1C(=O)C(c2ccc(Cl)cc2)N(CC#C)S(=O)(=O)c2ccccc21 (stereo not drawn)" measured_parameter=Ki experimental_value=0.43

## Input Tell me Ki reported for O=C1Nc2ccccc2S(=O)(=O)N(Cc2c(F)cccc2F)C1c1ccc(Cl)cc1 (stereo not drawn)
## Output 78

## Input Tell me Ki reported for C#CCN1C(c2ccc(Cl)cc2)C(=O)N(C=C=C)c2ccccc2S1(=O)=O (stereo not drawn)
## Output 0.36
